// cross-study collection: Ki for 5-hydroxytryptamine receptor 1A (Rattus norvegicus, UniProt P19327)
# experimental system: 5-hydroxytryptamine receptor 1A (Rattus norvegicus, UniProt P19327)
# Sequence (P19327 whole entry): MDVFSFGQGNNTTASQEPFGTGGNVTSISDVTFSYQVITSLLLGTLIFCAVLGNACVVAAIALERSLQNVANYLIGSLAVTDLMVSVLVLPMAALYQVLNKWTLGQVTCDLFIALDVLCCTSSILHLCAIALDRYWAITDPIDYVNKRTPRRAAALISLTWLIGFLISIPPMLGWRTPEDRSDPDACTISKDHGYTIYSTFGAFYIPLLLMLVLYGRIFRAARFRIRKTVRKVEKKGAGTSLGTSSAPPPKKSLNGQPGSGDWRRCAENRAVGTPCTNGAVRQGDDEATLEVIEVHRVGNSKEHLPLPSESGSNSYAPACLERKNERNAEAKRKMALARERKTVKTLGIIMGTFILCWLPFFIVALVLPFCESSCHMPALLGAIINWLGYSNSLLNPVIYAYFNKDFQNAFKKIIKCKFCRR
Please respond with Satisfied when measured Ki is strictly beneath 100 nM, and with Not satisfied in all other cases.

Examples with answers:
Cn1c(=O)c2c(nc3nc(NCCCN4CCN(c5cccc(Cl)c5)CC4)ccn32)n(C)c1=O
Satisfied
CN(C)CCSc1cccc(Br)n1
Not satisfied
COc1ccc2[nH]cc(C3=CCN(CCCN4C(=O)CC(c5c[nH]c6ccccc56)C4=O)CC3)c2c1 (racemic)
Not satisfied
Cc1cccc(OCCNCCCCN2C(=O)C3CCCN3C2=O)c1C (stereo not given)
Satisfied

// next entry
Take the molecule "COc1ccccc1N1CCN(CCN2C(=O)c3ccccc3C2=O)CC1" and say whether its Ki is less than 100 nM.
Not satisfied

###

# experimental system: 5-hydroxytryptamine receptor 1A (Rattus norvegicus, UniProt P19327)
# Sequence (P19327 whole entry): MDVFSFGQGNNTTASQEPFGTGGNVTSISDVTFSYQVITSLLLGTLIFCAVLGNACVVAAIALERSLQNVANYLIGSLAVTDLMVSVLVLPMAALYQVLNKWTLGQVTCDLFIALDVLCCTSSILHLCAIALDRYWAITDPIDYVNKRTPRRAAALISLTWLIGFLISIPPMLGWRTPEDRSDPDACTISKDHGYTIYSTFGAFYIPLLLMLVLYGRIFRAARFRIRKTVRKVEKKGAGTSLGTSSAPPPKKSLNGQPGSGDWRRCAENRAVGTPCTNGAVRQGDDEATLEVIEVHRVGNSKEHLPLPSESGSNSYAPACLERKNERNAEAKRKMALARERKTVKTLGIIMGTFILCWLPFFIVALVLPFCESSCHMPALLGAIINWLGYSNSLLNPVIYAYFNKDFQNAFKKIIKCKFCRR
// cross-study collection: pKi for 5-hydroxytryptamine receptor 1A (Rattus norvegicus, UniProt P19327)
One number for each entry, as −log10 of the molar value.

O=C(CCN1CCN(c2nsc3ccccc23)CC1)c1cc2c3c(c1)CCN3C(=O)CC2
7.26
COc1ccccc1N1CCN(CCCCNC(=O)c2ccsc2)CC1
8.66
O=C1NC2(CCc3ccccc32)C(=O)N1CCCCN1CCN(c2ccccc2)CC1 (configuration not stated)
7.12
O=C1C2CCCN2C(=O)N1CCN1CCN(c2cccc(Cl)c2)CC1 (configuration not stated)
6.38
CN(CCc1ccccc1)CC[C@H]1CC[C@H](Nc2ncccn2)CC1
7.04
O=C1C2CCCN2C(=O)N1CN1CCN(c2ccc(F)cc2)CC1 (configuration not stated)
6.30
COc1ccccc1N1CCN(CCn2nc(-n3cnc4ccccc43)ccc2=O)CC1
6.27
CCCN(CCC)C1COc2c(cccc2C(=O)c2ccoc2)C1 (configuration not stated)
7.79
COc1cccc(OC)c1OCCNC[C@H]1COc2cc3c(cc2O1)CCCC3
6.44
O=C(c1ccc(Cl)cc1)N1CCC(CNCc2cccc(-n3cccn3)n2)CC1
7.31

Record pKi for all entries; do not skip any.
1. COc1ccc(OC(CCN2CCN(c3noc4ccccc34)CC2)c2ccccc2)cc1 (configuration not stated)
2. CCCCOc1ccccc1N1CCN(CCCCN2CC(=O)N3CCCC3C2=O)CC1 (configuration not stated)
3. Cl.O=S(=O)(c1cncc2ccccc12)N1CCC(CCN2CCN(c3ccc(Cl)cc3)CC2)CC1
4. COc1ccccc1N1CCN(CCON2C(=O)C3C4C=CC(C4)C3C2=O)CC1 (configuration not stated)
5. O=C1CC(=C(c2ccccc2)c2ccccc2)C(=O)N1CCCCN1CCN(c2cccc(C(F)(F)F)c2)CC1
6. O=C1c2cc3ccccc3nc2CN1CCCCN1CCN(c2cccc(Cl)c2Cl)CC1
7. O=C1C2C3CCC(C4CCC43)C2C(=O)N1CCCCN1CCN(c2cncc(Cl)n2)CC1 (configuration not stated)

1. 6.74
2. 8.06
3. 5.49
4. 7.35
5. 7.80
6. 7.52
7. 7.29

Record pKi for all entries; do not skip any.
1. COc1ccccc1N1CCN(CCCn2c(=O)[nH]c3cc(-c4ccccc4)[nH]c3c2=O)CC1
2. CCCN(CCC)CCCCC1=CCCc2ccccc21

1: 7.65; 2: 6.45

Record pKi for all entries; do not skip any.
1. CCCN(CCCCN1C(=O)CC2(CCCC2)CC1=O)C1COc2cccc(OC)c2C1 (configuration not stated)
2. CNC(=O)c1ccc(CN2CCN(c3ccccc3OC)CC2)n1C.O=C(O)CCC(=O)O
3. CN(C)CCCC1(c2ccc(F)cc2)OCc2cc(C#N)ccc21 (configuration not stated)
4. COc1ccccc1N1CCN(C(N)=NCCNS(=O)(=O)c2cccc(C)c2)CC1
5. COc1ccccc1N1CCN(CCCNC(=O)C2CCC3CCCC32)CC1 (configuration not stated)
6. CC(C)Oc1ccccc1N1CCN(Cc2cccc(CN3CCCCC3=O)n2)CC1.Cl
7. COc1ccc2c(c1)C(CCCN1CCN(c3ccc(Cl)cc3)CC1)CCC2 (configuration not stated)
8. O=c1ccc(OCCCN2CCC(c3noc4cc(F)ccc34)CC2)nn1-c1ccc(F)c(F)c1

1: 10.00; 2: 6.61; 3: 4.30; 4: 4.98; 5: 7.94; 6: 6.08; 7: 6.15; 8: 7.36

###

// cross-study collection: log10(Ki) for UniProtKB P19327
Use the decimal logarithm of Ki (nM).

The cases that follow already have their log10(Ki) on record.
CN(C)c1cccc(CNCC2(F)CCN(C(=O)c3cccc(Cl)c3)CC2)n1
-1.01
Cc1cccc(S(=O)(=O)NCCCN=C(N)N2CCC(c3ccccc3)CC2)c1
4.25

Record log10(Ki) for all entries; do not skip any.
1. COc1ccccc1N1CCN(CCCCNC(=O)c2ccc(I)cc2)CC1
2. Cc1cc(=O)oc2cc(OCCCCN3CCC(c4nc5ccccc5s4)CC3)ccc12
3. CC(C)Oc1ccccc1N1CCN(Cc2ccc(CN3CCCCCCC3=O)o2)CC1.O=C(O)CCC(=O)O

0.60
2.16
1.46

###

// cross-study collection: pKi for 5-hydroxytryptamine receptor 1A (Rattus norvegicus)
One number for each entry, as −log10 of the molar value.

The cases that follow already have their pKi on record.
COc1ccccc1N1CCN(CCCCN2C(=O)C3CCCCN3C2=O)CC1 (stereo not given)
8.06
CCOc1nc2c(c(=O)n(C)c(=O)n2C)n1CCCCN1CCN(c2ccccc2OC)CC1.Cl
7.96
CC1CCc2ccc(OCCCCN3CCC(c4nsc5ccccc45)CC3)cc2C1=O (stereo not given)
5.89
COc1cccc2c1CCCC2CCCN1CCN(c2ccccn2)CC1 (stereo not given)
9.32
C1=C(c2cccc(CNCCOc3cccc4c3OCO4)c2)CCC1
7.68
COc1ccccc1N1CCN(CCCNC(=O)[C@@H]2CCC(=O)N2C(=O)c2ccccc2)CC1
6.41

Record pKi for all entries; do not skip any.
1. COc1ccccc1N1CCN(Cc2ccc(CN(C(=O)C3CCCCC3)C(C)C)n2C)CC1.O=C(O)CCC(=O)O
2. O=C(CCCCCN1CCN(c2nc3ccccc3[nH]2)CC1)NC1CCCc2ccccc21 (stereo not given)

7.96
5.59

###

// cross-study collection: pKi for 5-hydroxytryptamine receptor 1A (Rattus norvegicus)
# experimental system: 5-hydroxytryptamine receptor 1A (Rattus norvegicus)
# Sequence (P19327 whole entry): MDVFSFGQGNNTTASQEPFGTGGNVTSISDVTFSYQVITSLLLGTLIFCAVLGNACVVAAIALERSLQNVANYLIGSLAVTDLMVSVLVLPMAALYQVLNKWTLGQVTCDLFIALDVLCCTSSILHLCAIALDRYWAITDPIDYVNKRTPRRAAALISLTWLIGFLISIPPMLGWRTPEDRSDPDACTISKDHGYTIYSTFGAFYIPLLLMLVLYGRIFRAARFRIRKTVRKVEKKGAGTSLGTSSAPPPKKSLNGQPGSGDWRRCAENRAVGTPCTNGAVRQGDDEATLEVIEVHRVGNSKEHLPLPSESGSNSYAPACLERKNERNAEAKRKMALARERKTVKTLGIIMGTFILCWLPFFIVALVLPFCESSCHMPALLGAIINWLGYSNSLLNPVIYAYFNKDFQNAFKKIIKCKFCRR
Numbers only, as −log10 of the molar value.

The cases that follow already have their pKi on record.
COc1ccccc1N1CCN(CCCCc2ccc3c(c2)oc(=O)n3CCN2CCC(C(=O)c3ccc(F)cc3)CC2)CC1
8.70
O=C(NCCN1CCN(c2cccc(Cl)c2)CC1)[C@@H]1CCC(=O)N1C(=O)C1CCCCC1
5.07
CN(C)CCSc1cccc(-c2ccoc2)n1
7.55
Cl.N#Cc1ccccc1N1CCN(CCCCN2C(=O)C3CCCN3C2=O)CC1 (stereo not given)
8.43

Kindly review the next compound as well.
Bench note: what pKi did O=C1CC(c2c[nH]c3ccccc23)C(=O)N1CCCN1CC=C(c2c[nH]c3ccc(Br)cc23)CC1 (racemic) show?
6.96
